B1: Peroxisome proliferator-activated receptor delta, residues 71 to 145; numbered along this chain, Q03181 (parent)
chain: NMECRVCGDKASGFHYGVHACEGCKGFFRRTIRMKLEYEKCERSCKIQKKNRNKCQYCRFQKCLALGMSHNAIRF

variants of: B1; assay: abundance fitness (aPCA) (normalised: wild type 0, dead -1); higher = more abundant; growth selection in yeast, the domain comes from the species named; conditions: Homo sapiens
Criterion: abundance fitness meeting or surpassing -0.2. Met: yes (1). Not met: no (0).

>  <Mutation Spec>
A11K

>  <Class Assignment>
no (0)

$$$$
>  <Mutation Spec>
K35S

>  <Class Assignment>
yes (1)

$$$$
>  <Mutation Spec>
K54L

>  <Class Assignment>
yes (1)

$$$$
>  <Mutation Spec>
F14G

>  <Class Assignment>
no (0)

$$$$
>  <Mutation Spec>
A11I

>  <Class Assignment>
yes (1)

$$$$
>  <Mutation Spec>
F60A

>  <Class Assignment>
no (0)

$$$$
>  <Mutation Spec>
M2E

>  <Class Assignment>
no (0)

$$$$
>  <Mutation Spec>
K40M

>  <Class Assignment>
yes (1)

$$$$
>  <Mutation Spec>
M68G

>  <Class Assignment>
no (0)

$$$$

Source of measurements: the Human Domainome abundance scans (Beltran et al. 2025)
